# Tested system: Phospholipase A2, membrane associated (Mus musculus)
# Sequence (P31482 whole entry): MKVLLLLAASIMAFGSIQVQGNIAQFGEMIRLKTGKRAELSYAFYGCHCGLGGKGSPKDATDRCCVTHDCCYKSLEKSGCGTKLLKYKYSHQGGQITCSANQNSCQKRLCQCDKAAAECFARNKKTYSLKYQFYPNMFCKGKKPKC
Measured quantity: IC50 (nM)
Answer format: numeric, nM implied, no suffix.

What IC50 value was documented for this compound, Cc1c(C(=O)C(N)=O)c2c(OCC(=O)O)cccn2c1Cc1ccccc1-c1ccccc1 ?
10
